As shown below, each of these compounds has a reported relative viability value.
# Tested on: PC-14
# Test summary: relative viability (nuclei count vs DMSO), 5 days (fraction); higher = more cells survive
# Condition set: first compound 1.265 µM
Property: relative viability

{"columns": ["Compound", "Value measured"],
 "data": [
  ["O=C(O)c1ccc(-c2c[nH]c3ncc(-c4ccccc4)cc23)cc1C1CCCC1 + CCNC(=O)c1noc(-c2cc(C(C)C)c(O)cc2O)c1-c1ccc(CN2CCOCC2)cc1 [Luminespib] (partner 0.01 µM)", 0.134],
  ["O=C(O)c1ccc(-c2c[nH]c3ncc(-c4ccccc4)cc23)cc1C1CCCC1 + C[C@@H](Oc1cc(-c2cnn(C3CCNCC3)c2)cnc1N)c1c(Cl)ccc(F)c1Cl [Crizotinib] (partner 1 µM)", 0.672],
  ["O=C(O)c1ccc(-c2c[nH]c3ncc(-c4ccccc4)cc23)cc1C1CCCC1 + CS(=O)(=O)CCNCc1ccc(-c2ccc3ncnc(Nc4ccc(OCc5cccc(F)c5)c(Cl)c4)c3c2)o1 [Lapatinib] (partner 2 µM)", 0.302],
  ["O=C(O)c1ccc(-c2c[nH]c3ncc(-c4ccccc4)cc23)cc1C1CCCC1 + CC(=O)Nc1cccc(-n2c(=O)n(C3CC3)c(=O)c3c(Nc4ccc(I)cc4F)n(C)c(=O)c(C)c32)c1 [Trametinib] (partner 0.02 µM)", 0.688],
  ["O=C(O)c1ccc(-c2c[nH]c3ncc(-c4ccccc4)cc23)cc1C1CCCC1 + CC(=O)c1c(C)c2cnc(Nc3ccc(N4CCNCC4)cn3)nc2n(C2CCCC2)c1=O [Palbociclib] (partner 0.5 µM)", 0.486],
  ["O=C(O)c1ccc(-c2c[nH]c3ncc(-c4ccccc4)cc23)cc1C1CCCC1 + CS(=O)(=O)N1CCN(Cc2cc3nc(-c4cccc5[nH]ncc45)nc(N4CCOCC4)c3s2)CC1 [Pictilisib] (partner 1 µM)", 0.801],
  ["O=C(O)c1ccc(-c2c[nH]c3ncc(-c4ccccc4)cc23)cc1C1CCCC1 + Nc1nc2[nH]cc(CCc3ccc(C(=O)N[C@@H](CCC(=O)O)C(=O)O)cc3)c2c(=O)[nH]1 [Pemetrexed] (partner 0.2 µM)", 0.125]
]}

---

Each record here notes measured relative viability.
# Test system: NCI-H358
# Test summary: relative viability (nuclei count vs DMSO), 5 days (fraction); higher = more cells survive
# Condition set: first compound 0.4 µM

{"columns": ["Compound", "relative viability"],
 "data": [
  ["O=C(O)c1ccc(-c2c[nH]c3ncc(-c4ccccc4)cc23)cc1C1CCCC1 + COc1cccc2cc(-c3nc([C@H]4CC[C@H](C(=O)O)CC4)n4ncnc(N)c34)[nH]c12 [OSI-027] (partner 0.5 µM)", 0.727],
  ["O=C(O)c1ccc(-c2c[nH]c3ncc(-c4ccccc4)cc23)cc1C1CCCC1 + Nc1ncn([C@H]2C[C@H](O)[C@@H](CO)O2)c(=O)n1 [Decitabine] (partner 2 µM)", 0.172],
  ["O=C(O)c1ccc(-c2c[nH]c3ncc(-c4ccccc4)cc23)cc1C1CCCC1 + C[C@@H](Oc1cc(-c2cnn(C3CCNCC3)c2)cnc1N)c1c(Cl)ccc(F)c1Cl [Crizotinib] (partner 1 µM)", 0.512],
  ["O=C(O)c1ccc(-c2c[nH]c3ncc(-c4ccccc4)cc23)cc1C1CCCC1 + CS(=O)(=O)N1CCN(Cc2cc3nc(-c4cccc5[nH]ncc45)nc(N4CCOCC4)c3s2)CC1 [Pictilisib] (partner 1 µM)", 0.371]
]}

---

# System: NCI-H1734
# Test summary: relative viability (nuclei count vs DMSO), 5 days (fraction); higher = more cells survive
# Condition set: first compound 0.03162 µM
Property: relative viability

{"columns": ["Compound", "Target of assay", "Value measured"],
 "data": [
  ["NC(=O)Nc1cc(-c2cccc(F)c2)sc1C(=O)N[C@H]1CCCNC1 [AZD7762] + O=C(CCCCCCC(=O)Nc1ccccc1)NO [Vorinostat] (partner 1 µM)", "NCI-H1734", 0.723],
  ["NC(=O)Nc1cc(-c2cccc(F)c2)sc1C(=O)N[C@H]1CCCNC1 [AZD7762] + CS(=O)(=O)CCNCc1ccc(-c2ccc3ncnc(Nc4ccc(OCc5cccc(F)c5)c(Cl)c4)c3c2)o1 [Lapatinib] (partner 2 µM)", "NCI-H1734", 1.16],
  ["NC(=O)Nc1cc(-c2cccc(F)c2)sc1C(=O)N[C@H]1CCCNC1 [AZD7762] + Cc1cc(Nc2cc(N3CCN(C)CC3)nc(Sc3ccc(NC(=O)C4CC4)cc3)n2)n[nH]1 [Tozasertib] (partner 0.1 µM)", "NCI-H1734", 0.25],
  ["NC(=O)Nc1cc(-c2cccc(F)c2)sc1C(=O)N[C@H]1CCCNC1 [AZD7762] + CC1(C)CCC(c2ccc(Cl)cc2)=C(CN2CCN(c3ccc(C(=O)NS(=O)(=O)c4ccc(N[C@H](CCN5CCOCC5)CSc5ccccc5)c(S(=O)(=O)C(F)(F)F)c4)cc3)CC2)C1 [Navitoclax] (partner 0.5 µM)", "NCI-H1734", 0.892],
  ["NC(=O)Nc1cc(-c2cccc(F)c2)sc1C(=O)N[C@H]1CCCNC1 [AZD7762] + C[C@]1(O)C[C@@H](c2nc(-c3ccc4ccc(-c5ccccc5)nc4c3)c3c(N)nccn32)C1 [Linsitinib] (partner 1 µM)", "NCI-H1734", 0.887]
]}

---

# Tested on: UMC-11
# Test summary: relative viability (nuclei count vs DMSO), 5 days (fraction); higher = more cells survive
# Condition set: first compound 8 µM
True if relative viability is below 0.4. False if not; exact matches included in False.

{"columns": ["Compound", "Target of assay", "Category label"],
 "data": [
  ["C=C1C(=O)O[C@@H](CCCCCCCC)[C@@H]1C(=O)O [C-75] + CC(C)C[C@H](NC(=O)[C@H](Cc1ccccc1)NC(=O)c1cnccn1)B(O)O [Bortezomib] (partner 0.002 µM)", "UMC-11", "False"],
  ["C=C1C(=O)O[C@@H](CCCCCCCC)[C@@H]1C(=O)O [C-75] + Cc1cc(Nc2cc(N3CCN(C)CC3)nc(Sc3ccc(NC(=O)C4CC4)cc3)n2)n[nH]1 [Tozasertib] (partner 0.1 µM)", "UMC-11", "True"],
  ["C=C1C(=O)O[C@@H](CCCCCCCC)[C@@H]1C(=O)O [C-75] + C[C@@H](Oc1cc(-c2cnn(C3CCNCC3)c2)cnc1N)c1c(Cl)ccc(F)c1Cl [Crizotinib] (partner 1 µM)", "UMC-11", "False"],
  ["C=C1C(=O)O[C@@H](CCCCCCCC)[C@@H]1C(=O)O [C-75] + O=C(CCCCCCC(=O)Nc1ccccc1)NO [Vorinostat] (partner 1 µM)", "UMC-11", "True"],
  ["C=C1C(=O)O[C@@H](CCCCCCCC)[C@@H]1C(=O)O [C-75] + Cc1nc(Nc2ncc(C(=O)Nc3c(C)cccc3Cl)s2)cc(N2CCN(CCO)CC2)n1 [Dasatinib] (partner 0.075 µM)", "UMC-11", "True"]
]}

---

# Test system: NCI-H1563
# Test summary: relative viability (nuclei count vs DMSO), 5 days (fraction); higher = more cells survive
# Condition set: first compound 0.253 µM
Property: relative viability

{"columns": ["Compound", "Property", "Value measured"],
 "data": [
  ["C=C1C(=O)O[C@@H](CCCCCCCC)[C@@H]1C(=O)O [C-75] + CC(C)C[C@H](NC(=O)[C@H](Cc1ccccc1)NC(=O)c1cnccn1)B(O)O [Bortezomib] (partner 0.002 µM)", "relative viability", 1.1],
  ["C=C1C(=O)O[C@@H](CCCCCCCC)[C@@H]1C(=O)O [C-75] + COc1cc2c(Oc3ccc(NC(=O)C4(C(=O)Nc5ccc(F)cc5)CC4)cc3F)ccnc2cc1OCCCN1CCOCC1 [Foretinib] (partner 0.25 µM)", "relative viability", 0.955],
  ["C=C1C(=O)O[C@@H](CCCCCCCC)[C@@H]1C(=O)O [C-75] + CS(=O)(=O)N1CCN(Cc2cc3nc(-c4cccc5[nH]ncc45)nc(N4CCOCC4)c3s2)CC1 [Pictilisib] (partner 1 µM)", "relative viability", 0.681],
  ["Oc1nc(-c2ccc(C(F)(F)F)cc2)nc2c1CSCC2 [XAV939] + CS(=O)(=O)N1CCN(Cc2cc3nc(-c4cccc5[nH]ncc45)nc(N4CCOCC4)c3s2)CC1 [Pictilisib] (partner 1 µM)", "relative viability", 0.656],
  ["Oc1nc(-c2ccc(C(F)(F)F)cc2)nc2c1CSCC2 [XAV939] + C[C@@H](Oc1cc(-c2cnn(C3CCNCC3)c2)cnc1N)c1c(Cl)ccc(F)c1Cl [Crizotinib] (partner 1 µM)", "relative viability", 0.846],
  ["Oc1nc(-c2ccc(C(F)(F)F)cc2)nc2c1CSCC2 [XAV939] + Nc1nc2[nH]cc(CCc3ccc(C(=O)N[C@@H](CCC(=O)O)C(=O)O)cc3)c2c(=O)[nH]1 [Pemetrexed] (partner 0.2 µM)", "relative viability", 0.685],
  ["Oc1nc(-c2ccc(C(F)(F)F)cc2)nc2c1CSCC2 [XAV939] + CC(C)C[C@H](NC(=O)[C@H](Cc1ccccc1)NC(=O)c1cnccn1)B(O)O [Bortezomib] (partner 0.002 µM)", "relative viability", 0.81],
  ["C=C1C(=O)O[C@@H](CCCCCCCC)[C@@H]1C(=O)O [C-75] + N=C(N)NC(=N)NCCc1ccccc1 [Phenformin] (partner 250 µM)", "relative viability", 0.64]
]}
